Could you please report measured pIC50 for the items listed next?
# system tested: UniProt P0DTD1
# experiment notes: biochemical
# condition: Table A, class symbols, read-out: SARS-Cov-2 (IC50)
pIC50: −log10 of the molar value.

Problem: Requested read-out: pIC50. Entry: CC(C)C[C@@H](C(=O)N1C[C@]2(CCC3(CC3)NC2=O)C[C@H]1C#N)N(C)C(=O)[C@H](C)NC(=O)C(F)(F)F [Compound 20]
Result: 6.70 to 7.70

Problem: Requested read-out: pIC50. Entry: CC(C)C[C@@H](C(=O)N1C[C@]2(CC(c3ccccc3)=NNC2=O)C[C@H]1C#N)N(C)C(=O)[C@H](C)NC(=O)C(F)(F)F [Example 29]
Result: 6.70 to 7.70

Problem: Requested read-out: pIC50. Entry: CN(C(=O)[C@H](CC1CC1)NS(=O)(=O)C1CC1)[C@@H](CC1CC1)C(=O)N1C[C@@]2(C[C@H]1C#N)Oc1cccnc1NC2=O [Compound 178]
Result: > 7.70

Problem: Requested read-out: pIC50. Entry: CN(C(=O)c1cc2c(F)cc(F)c(F)c2[nH]1)[C@@H](CC1CC1)C(=O)N1C[C@@]2(C[C@H]1C#N)Oc1cccnc1NC2=O [Compound 96]
Result: > 7.70

Problem: Requested read-out: pIC50. Entry: CN(C(=O)[C@@H](CC1CCCCC1)NC(=O)C(F)(F)F)[C@@H](CC1CC1)C(=O)N1C[C@@]2(C[C@H]1C#N)Oc1cccnc1NC2=O [Compound 145]
Result: > 7.70

Problem: Requested read-out: pIC50. Entry: CN(C(=O)[C@H]1CCN(C(=O)C(F)(F)F)C1)[C@@H](CC1CC1)C(=O)N1C[C@@]2(C[C@H]1C#N)Oc1cc(F)cc(F)c1NC2=O [Compound 129]
Result: 5.70 to 6.70
